Give measured protein stability index for each item. Keep answers brief.
System: Saccharomyces cerevisiae
Test: protein stability index of tFT-peptide fusion (C-terminal peptide) (PSI (0-1 scale)); higher = more stable (slower turnover);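 further: PSI is a weighted mean of sequencing reads over stability bins, variants kept only with over 10 reads, mCherry proximal and sfGFP distal, peptide attached via GGGS linker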
Conditions: genetic background: das1 deletion; temperature: 37 C
Answers are plain numbers.

Consider the following illustrative entries.
sequence_data=HSRRRRPTPQSL target_or_system="Saccharomyces cerevisiae" measured_property="protein stability index" assay_result=0.636
sequence_data=FVFCGVVFLFLL target_or_system="Saccharomyces cerevisiae" measured_property="protein stability index" assay_result=0.519
sequence_data=PYPSVIFFLHVY target_or_system="Saccharomyces cerevisiae" measured_property="protein stability index" assay_result=0.56
sequence_data=LLPFSLLDLLLC target_or_system="Saccharomyces cerevisiae" measured_property="protein stability index" assay_result=0.681
sequence_data=LSFYLRAVRASL target_or_system="Saccharomyces cerevisiae" measured_property="protein stability index" assay_result=0.71

Okay, here is my list. What is protein stability index for each of these?
1. RCTFSFSFPFVL
2. RTRVRKTRIRTC
3. CLFFFFFHLPIF
4. PSFLAIRVCLLV
5. WFIPRSVCRWLF
6. ASCFFLFVLRVF

Reply:
1: 0.768; 2: 0.724; 3: 0.533; 4: 0.211; 5: 0.676; 6: 0.271

###

System: Saccharomyces cerevisiae
Assay: protein stability index of tFT-peptide fusion (C-terminal peptide) (PSI (0-1 scale)); higher = more stable (slower turnover)
Conditions: genetic background: doa10 deletion; temperature: 30 C
Mark false for protein stability index values under 0.3, and true for everything at or above.

Here's what some known entries look like.
sequence_data=PVHARYCSLKWA target_or_system="Saccharomyces cerevisiae" group_label=false
sequence_data=LIARYTFLFCLC target_or_system="Saccharomyces cerevisiae" group_label=true
sequence_data=NFFLLFFFFLSF target_or_system="Saccharomyces cerevisiae" group_label=true
sequence_data=DFLSGRCIFFYV target_or_system="Saccharomyces cerevisiae" group_label=false

Task item: Kindly determine if protein stability index recorded for VFSCFLFLVVLV is above or exactly 0.3.
Reply: false

Task item: Can CMLPWPILLCPF be said to have protein stability index at or above 0.3?
Reply: true

Task item: Is the recorded value of protein stability index equal to or greater than 0.3 for this sequence? AFPVGFLVGLVV
Reply: true

Task item: Please indicate if the recorded protein stability index for VLWVYLFLFVIF meets or exceeds 0.3.
Reply: false

###

Give measured protein stability index for each item. Keep answers brief.
System: Saccharomyces cerevisiae
Experiment: protein stability index of tFT-peptide fusion (C-terminal peptide) (PSI (0-1 scale)); higher = more stable (slower turnover)
Conditions: genetic background: wild type; temperature: 30 C
Answers are plain numbers.

Worked examples follow.
sequence_data=FVGSSFELRLPG assay_result=0.692
sequence_data=FLSLSLFPFSSL assay_result=0.698
sequence_data=LWGVGAGPEDVG assay_result=0.68
sequence_data=RSALVPPRLPAS assay_result=0.675
sequence_data=AWRGGSRKDVEG assay_result=0.713

Batch lookup, protein stability index per entry.
1. SERKAKAEVAEA
2. PYEFRLISRNTR
3. IGIIFTKCGGRT
4. RLSTTTTKQFIH
5. KVNKKKVITKQE
6. SVGGSLGAGGGG

Reply:
0.692
0.669
0.688
0.49
0.713
0.682

###

System: Saccharomyces cerevisiae
Test: protein stability index of tFT-peptide fusion (C-terminal peptide) (PSI (0-1 scale)); higher = more stable (slower turnover)
Conditions: genetic background: wild type; temperature: 30 C
Measured property: protein stability index
Numbers only.

Worked set:
sequence_data=KQIPLFILRPQT assay_result=0.704
sequence_data=VQVRPVVTVPSK assay_result=0.7
sequence_data=TCVASLSVLCLL assay_result=0.574
sequence_data=TAHHTRPQYLPL assay_result=0.622
sequence_data=GLQFDPALPLPP assay_result=0.739
sequence_data=FCLSVVELRGLM assay_result=0.672

Hello, I would appreciate it if you could give protein stability index for each entry below.
1. FLHLGGEWGVEG
2. IIRKYKARKKNK

Reply:
[0.683, 0.688]

###

System: Saccharomyces cerevisiae
Experiment: protein stability index of tFT-peptide fusion (C-terminal peptide) (PSI (0-1 scale)); higher = more stable (slower turnover)
Settings: genetic background: wild type; temperature: 30 C
Could you please report measured protein stability index for the items listed next?
Answers are plain numbers.

sequence_data=PPPPPPPPPQPS target_or_system="Saccharomyces cerevisiae" assay_result=0.67
sequence_data=VLARPQAKAPLG target_or_system="Saccharomyces cerevisiae" assay_result=0.571
sequence_data=ARSLPSPTLPFL target_or_system="Saccharomyces cerevisiae" assay_result=0.697
sequence_data=SALRWPRPVLRV target_or_system="Saccharomyces cerevisiae" assay_result=0.619
sequence_data=TLTVCVNQGMTM target_or_system="Saccharomyces cerevisiae" assay_result=0.668

// batch mode: one protein stability index value per listed entry
1. PRPPAPRTGPPP
2. CMVRGCFNHCGW
3. RPPTASPLVAPA
4. HYLHRDSLLRWL

Reply:
0.633
0.669
0.655
0.618

###

System: Saccharomyces cerevisiae
Test: protein stability index of tFT-peptide fusion (C-terminal peptide) (PSI (0-1 scale)); higher = more stable (slower turnover)
Conditions: genetic background: wild type; temperature: 30 C
Measured property: protein stability index

Example cases with answers are listed next.
sequence_data=GGCQCFSFPWPP measured_property="protein stability index" assay_result=0.712
sequence_data=PTGRGRSAYLVL measured_property="protein stability index" assay_result=0.688
sequence_data=CSGFPPPPHSSL measured_property="protein stability index" assay_result=0.681
sequence_data=KEKKNKKKKQNR measured_property="protein stability index" assay_result=0.701
sequence_data=SFYIMSIQRKAK measured_property="protein stability index" assay_result=0.681

Below is a list of sequences. For each, state its recorded protein stability index.
1. RRMDGHLRELPA
2. GRCLWGRVGSVM
3. DLQKKKEILSQK
4. CFVSSSRFLSSF

Reply:
0.685
0.707
0.707
0.692

List reported protein stability index for each of these sequences:
1. LTPGFSRIDRAP
2. YAGARGPMNRGS

Reply:
[0.718, 0.701]

Task item: Which value of protein stability index has been reported for GGLVWEESAGVR in the records?
Reply: 0.709

###

Test system: Saccharomyces cerevisiae
Test: protein stability index of tFT-peptide fusion (C-terminal peptide) (PSI (0-1 scale)); higher = more stable (slower turnover)
Conditions: genetic background: wild type; temperature: 30 C
Please use true whenever protein stability index is not below 0.7, and false whenever it is.

sequence_data=KMYKRPNYQKTK group_label=false
sequence_data=IKKQTKTKKKEF group_label=false
sequence_data=LMLSGFGSFCVA group_label=false

Task item: Form field: protein stability index at least 0.7? Entry: RYLLPYQRRLFL
Reply: true

Task item: Reported protein stability index at or above 0.7? PPPLPSPPAFRP
Reply: false

Task item: Determine whether this sequence has protein stability index no lower than 0.7: KGICALKIATGK
Reply: false

Task item: Does the reported protein stability index for HLDVRGTRRMGT fall at or above the 0.7 mark?
Reply: false

Task item: Textbook exercise: given the entry GSFLGVRPGNVF , state whether its protein stability index is greater than or equal to 0.7.
Reply: true

Task item: Test whether the sequence LPPCSPLIFYFH records protein stability index of 0.7 or higher.
Reply: false

Task item: Record FQAPGGEIMSPS ; criterion: protein stability index no lower than 0.7. Met?
Reply: false

Task item: Kindly determine if protein stability index recorded for GSSYDSEISRQS is above or exactly 0.7.
Reply: true

Task item: Does protein stability index meet or surpass 0.7 for PVHARYCSLKWA ?
Reply: false

Task item: hey, is protein stability index for this one >= 0.7? LVFLYFHFCCGF
Reply: false

Task item: Does the sequence SFYAGLVVGGVG have recorded protein stability index that is 0.7 or more?
Reply: false

Task item: protein stability index >= 0.7 for HVLHKPYRPGRP ?
Reply: false

Task item: Does the reported protein stability index for LYLRNFGSPFLV fall at or above the 0.7 mark?
Reply: false

Task item: Please indicate if the recorded protein stability index for NYCKGFLLRANI meets or exceeds 0.7.
Reply: false

Task item: # check: protein stability index of NNMFFTREYEKL is greater than or equal to 0.7
Reply: false

Task item: Assess whether reported protein stability index for YLFSTGSTLHSH sits at 0.7 or higher.
Reply: true

###

Test system: Saccharomyces cerevisiae
Assay: protein stability index of tFT-peptide fusion (C-terminal peptide) (PSI (0-1 scale)); higher = more stable (slower turnover)
Details: genetic background: wild type; temperature: 30 C
Measured property: protein stability index

sequence_data=RPRCAPSPPLPP target_or_system="Saccharomyces cerevisiae" assay_result=0.691
sequence_data=GKILKGAASPSC target_or_system="Saccharomyces cerevisiae" assay_result=0.72
sequence_data=GLAYPAGALSLL target_or_system="Saccharomyces cerevisiae" assay_result=0.684

// each listed sequence needs a value for protein stability index
1. RTTKRNDYLSHI
2. EKKKEKHKDQEK
3. SLHSTPRPPAPG
4. GWGGGGGGRGWG

Reply:
1. 0.699
2. 0.692
3. 0.705
4. 0.71
